RECORDED_METRIC: melting point

Past entries and their recorded results:
{"COMPOUND": "Cc1ccc(-c2nn(Cc3ccccc3Cl)c3ccccc23)cc1 [Compound 18]", "melting point": "77.6 to 78.8 °C"}
{"COMPOUND": "Cc1ccc(-c2nn(Cc3ccccc3C)c3ccccc23)cc1 [Compound 22]", "melting point": "114.1 to 116.5 °C"}
{"COMPOUND": "Cc1ccc(-c2nn(Cc3ccc(Cl)cc3)c3ccccc23)cc1 [Compound 14]", "melting point": "79.9 to 82.3 °C"}
{"COMPOUND": "CCOC(=O)c1ccc(-c2n[nH]c3ccccc23)cc1 [Compound 11, Ethyl 4-(1H-indazol-3-yl)benzoate]", "melting point": "133 to 135 °C"}
{"COMPOUND": "Cc1ccc(Cn2nc3ccccc3c2-c2ccc(C)cc2)cc1 [Compound 21]", "melting point": "107.5 to 109.3 °C"}
{"COMPOUND": "Cc1ccc(-c2c3ccccc3nn2Cc2ccccc2Cl)cc1 [Compound 19]", "melting point": "131.3 to 137.8 °C"}
{"COMPOUND": "Cc1ccc(-c2nn(Cc3cccc(Cl)c3)c3ccccc23)cc1 [Compound 16]", "melting point": "66.6 to 68 °C"}
{"COMPOUND": "O=C(NO)c1ccc(-c2c3ccccc3nn2Cc2ccccc2)cc1 [Compound 38]", "melting point": "201 to 203 °C"}

Given the compound Cc1ccc(-c2c3ccccc3nn2Cc2ccc(Cl)cc2)cc1 [Compound 15] , what is its reported melting point?
107.4 to 109.5 °C

Given the compound O=C(O)c1ccc(-c2c3ccccc3nn2Cc2ccccc2)cc1 [Compound 35, 4-(2-Benzyl-2H-indazol-3-yl)benzoic acid] , what is its reported melting point?
159 to 163 °C

Given the compound O=C(O)c1ccc(-c2c3ccccc3nn2Cc2ccc(F)cc2)cc1 [Compound 36] , what is its reported melting point?
237 to 239 °C

Given the compound COC(=O)c1ccc(-c2nn(Cc3ccc(F)cc3)c3ccccc23)cc1 [Compound 29] , what is its reported melting point?
118 to 120 °C

Given the compound OCc1ccc(-c2c3ccccc3nn2Cc2ccccc2)cc1 [Compound 39] , what is its reported melting point?
148 to 149 °C

Given the compound COC(=O)c1ccc(-c2nn(Cc3ccco3)c3ccccc23)cc1 [Compound 33] , what is its reported melting point?
99 to 101 °C
